Assay: clinical
Conditions: human, in vivo, 120 mg, AUC0–8
readout: AUC(0-t)

1) C[C@]1(c2nc3c(C(N)=O)cccc3[nH]2)CCCN1    3990 ng·h/mL

====

Assay: clinical
Conditions: human, in vivo, iv, 200 mg/m2, C max
readout: Cmax

1) CC(=O)O[C@H]1C(=O)[C@@]2(C)[C@H]([C@H](OC(=O)c3ccccc3)[C@]3(O)C[C@H](OC(=O)[C@H](O)[C@@H](NC(=O)c4ccccc4)c4ccccc4)C(C)=C1C3(C)C)[C@]1(OC(C)=O)CO[C@@H]1C[C@@H]2O [Paclitaxel, reference compound]    6840 ng/mL
